# study_target: T1, human Origin Recognition Complex subunit 1 BAH domain, wild type (human, UniProt Q13415 45-171)
# T1 sequence (looked up): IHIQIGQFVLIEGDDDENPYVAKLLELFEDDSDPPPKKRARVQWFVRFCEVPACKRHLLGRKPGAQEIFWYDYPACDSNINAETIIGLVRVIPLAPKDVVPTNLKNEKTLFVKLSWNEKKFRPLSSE
# procedure_details: ITC
No end group written: not given here.
readout_label: Kd (µM)

GAKRHRCVLRDNY (not fully specified (residue 7)) [histone H4(14–25)Kc20me2 peptide] | 8.85
